From: the supplement of paper PMC3334620

tgt: Cst6 (UniProt P40535)
Sequence (P40535 whole entry): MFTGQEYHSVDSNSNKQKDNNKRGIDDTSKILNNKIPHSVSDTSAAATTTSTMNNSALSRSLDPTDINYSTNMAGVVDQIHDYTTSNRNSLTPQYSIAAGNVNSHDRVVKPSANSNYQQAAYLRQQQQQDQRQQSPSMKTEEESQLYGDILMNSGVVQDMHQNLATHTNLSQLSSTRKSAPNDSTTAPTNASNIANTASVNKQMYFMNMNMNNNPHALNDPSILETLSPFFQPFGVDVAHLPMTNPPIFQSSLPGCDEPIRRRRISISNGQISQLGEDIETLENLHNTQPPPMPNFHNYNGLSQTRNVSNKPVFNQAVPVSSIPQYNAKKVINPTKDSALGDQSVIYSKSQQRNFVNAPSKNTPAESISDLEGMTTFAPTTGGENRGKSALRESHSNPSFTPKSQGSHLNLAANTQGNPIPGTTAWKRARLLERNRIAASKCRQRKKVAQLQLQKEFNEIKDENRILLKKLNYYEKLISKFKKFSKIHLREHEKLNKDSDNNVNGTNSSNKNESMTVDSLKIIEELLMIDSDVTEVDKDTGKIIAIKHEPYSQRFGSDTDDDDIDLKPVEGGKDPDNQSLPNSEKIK
assay-remarks: PBM E-score (8-mer binding enrichment) (E-score (-0.5 to 0.5)); higher = stronger / more preferred TF binding
stated-conditions: protein concentration: 200 nM; construct: GST-DNA-binding domain
Whole data set: some 33,000 sequences, median “E-score (-0.5 to 0.5)” near -0.016, cut for the highest 2% near 0.31. Many of the other results were omitted from the sample, so the highest values are more common in it than they were.
PBM E-score below 0.3 gives -1; PBM E-score at or above it gives 1.

Example results:
In [3]: df
Out[3]:
   input_sequence                    tgt  assigned_category
0        CTAATTTA  Cst6 (UniProt P40535)                  1
1        ACTCGTCT  Cst6 (UniProt P40535)                 -1
2        CTCCAGAC  Cst6 (UniProt P40535)                 -1
3        CCGCCGGA  Cst6 (UniProt P40535)                 -1
4        CAGCCAAA  Cst6 (UniProt P40535)                 -1

Ask: Tell me whether PBM E-score is at least 0.3 here: TCTCGTCA
Reply: 1

Ask: Tell me whether PBM E-score is at least 0.3 here: CGGCAACG
Reply: -1

Ask: Tell me whether PBM E-score is at least 0.3 here: GTAATTTA
Reply: 1

Ask: Tell me whether PBM E-score is at least 0.3 here: ACATAATC
Reply: -1

Ask: Tell me whether PBM E-score is at least 0.3 here: ACTCGTCA
Reply: 1

Ask: Tell me whether PBM E-score is at least 0.3 here: CTCGGACC
Reply: -1

Ask: Tell me whether PBM E-score is at least 0.3 here: TAGTGCCA
Reply: -1

Ask: Tell me whether PBM E-score is at least 0.3 here: CATATAAG
Reply: -1

Ask: Tell me whether PBM E-score is at least 0.3 here: CTAATTTC
Reply: -1

----------
tgt: Cst6 (UniProt P40535)
assay-remarks: PBM E-score (8-mer binding enrichment) (E-score (-0.5 to 0.5)); higher = stronger / more preferred TF binding
stated-conditions: protein concentration: 200 nM; construct: GST-DNA-binding domain
Whole data set: some 33,000 sequences, median “E-score (-0.5 to 0.5)” near -0.016, cut for the highest 2% near 0.31. The sample as a whole holds a higher share of the highest values than the screen did.
readout-type: PBM E-score
Give your answer as a number; write no unit.

// PBM E-score lookup, sequence = CAAAAATG , result: 0.133

// PBM E-score lookup, sequence = CTCAGTGA , result: 0.0623

// PBM E-score lookup, sequence = GACACCAC , result: -0.0664

// PBM E-score lookup, sequence = ATTTCAGC , result: 0.00693

// PBM E-score lookup, sequence = CAATTAGG , result: 0.0223

----------
Here, each record is paired with measured PBM E-score data.
tgt: Cst6 (UniProt P40535)
assay-remarks: PBM E-score (8-mer binding enrichment) (E-score (-0.5 to 0.5)); higher = stronger / more preferred TF binding
stated-conditions: protein concentration: 200 nM; construct: GST-DNA-binding domain
Over roughly 33,000 sequences, “E-score (-0.5 to 0.5)” has its median near -0.016; the highest 2% begin near 0.31. The sample as a whole holds a higher share of the highest values than the screen did.
Give your answer as a number; write no unit.

// below: answered sequences
In [3]: df
Out[3]:
   input_sequence  value_measured
0        CGTCAATC           0.337
1        AGTCAATA          0.0835
2        CGTCAATA           0.349

// PBM E-score lookup, sequence = GGTCAATA , result: 0.0678

// PBM E-score lookup, sequence = TCATATAA , result: 0.305

// PBM E-score lookup, sequence = ATGACGTA , result: 0.498

// PBM E-score lookup, sequence = AGTCAATC , result: 0.0291

// PBM E-score lookup, sequence = TAATAAAA , result: 0.316

// PBM E-score lookup, sequence = AAATATAA , result: 0.233

// PBM E-score lookup, sequence = CCAGAAGG , result: -0.0896

// PBM E-score lookup, sequence = AGGACGTA , result: -0.126

// PBM E-score lookup, sequence = CAATATAA , result: 0.312

// PBM E-score lookup, sequence = AAGACGTA , result: 0.215

// PBM E-score lookup, sequence = CTATATAA , result: 0.147

// PBM E-score lookup, sequence = AGGTCTAC , result: -0.216

----------
tgt: Cst6 (UniProt P40535)
assay-remarks: PBM E-score (8-mer binding enrichment) (E-score (-0.5 to 0.5)); higher = stronger / more preferred TF binding
stated-conditions: protein concentration: 200 nM; construct: GST-DNA-binding domain
Whole data set: some 33,000 sequences, median “E-score (-0.5 to 0.5)” near -0.016, cut for the highest 2% near 0.31. The entries come from a sample that favours the highest values as a whole.
PBM E-score below 0.2 gives FALSE; PBM E-score at or above it gives TRUE.

Example results:
In [3]: df
Out[3]:
   input_sequence                    tgt  assigned_category
0        CGGATAAG  Cst6 (UniProt P40535)              FALSE
1        ATTGCGTA  Cst6 (UniProt P40535)               TRUE
2        GAACAAAA  Cst6 (UniProt P40535)              FALSE
3        CCAATTGG  Cst6 (UniProt P40535)              FALSE
4        CGGAAATA  Cst6 (UniProt P40535)              FALSE
5        ATTGCGTG  Cst6 (UniProt P40535)              FALSE
6        TGACAACA  Cst6 (UniProt P40535)               TRUE
7        CCCAGGAA  Cst6 (UniProt P40535)              FALSE
8        CTTGCGTC  Cst6 (UniProt P40535)               TRUE
9        TAACAAAA  Cst6 (UniProt P40535)               TRUE

Ask: Tell me whether PBM E-score is at least 0.2 here: CTTATGCC
Reply: FALSE

Ask: Tell me whether PBM E-score is at least 0.2 here: AGACAACA
Reply: FALSE

Ask: Tell me whether PBM E-score is at least 0.2 here: ATTATGAA
Reply: TRUE

Ask: Tell me whether PBM E-score is at least 0.2 here: CCGCAGCA
Reply: FALSE

Ask: Tell me whether PBM E-score is at least 0.2 here: ATTGCGTC
Reply: TRUE

Ask: Tell me whether PBM E-score is at least 0.2 here: GTTGCGTA
Reply: TRUE

Ask: Tell me whether PBM E-score is at least 0.2 here: AACGTTGC
Reply: FALSE

Ask: Tell me whether PBM E-score is at least 0.2 here: AAACAAAA
Reply: TRUE

Ask: Tell me whether PBM E-score is at least 0.2 here: CGACAAAA
Reply: FALSE

Ask: Tell me whether PBM E-score is at least 0.2 here: ACCGGGTG
Reply: FALSE

Ask: Tell me whether PBM E-score is at least 0.2 here: ACGGGTCA
Reply: FALSE

Ask: Tell me whether PBM E-score is at least 0.2 here: TGACAAAA
Reply: TRUE

----------
tgt: Cst6 (UniProt P40535)
assay-remarks: PBM E-score (8-mer binding enrichment) (E-score (-0.5 to 0.5)); higher = stronger / more preferred TF binding
stated-conditions: protein concentration: 200 nM; construct: GST-DNA-binding domain
Over roughly 33,000 sequences, “E-score (-0.5 to 0.5)” has its median near -0.016; the highest 2% begin near 0.31. For the sample, the highest values were picked, then their nearest neighbours and some sequences at random.
Here, each record is paired with measured PBM E-score data.
Give your answer as a number; write no unit.

// below: answered sequences
In [3]: df
Out[3]:
   input_sequence  readout_type  value_measured
0        AGGAGCTG   PBM E-score          -0.256
1        TAGTACAA   PBM E-score        -0.00017

// PBM E-score lookup, sequence = AATTCAAA , result: 0.23

// PBM E-score lookup, sequence = AAAACGCG , result: 0.205

// PBM E-score lookup, sequence = GTGATAAA , result: 0.201

// PBM E-score lookup, sequence = ATTAACGC , result: 0.0112

// PBM E-score lookup, sequence = ATGATATA , result: 0.31

// PBM E-score lookup, sequence = ATGATAAA , result: 0.307
